Origin of the recorded values: PubChem BioAssay (NCI)

tested on: U251 CNS; experiment: NCI-60 one-dose screen, 48 h (100 = growth as untreated, 0 = no growth, -100 = all killed); details: 10 µM unless noted
Compounds without any hit were thinned out: in the full panel of roughly 83,000, 20% have a hit. Calls of active or inactive are those of the source. The calls were made as follows: active = growth percent below 10; inactive = the rest.
Listed below: growth values for each entry.

- compound: "CCc1nc2cc(/C=C/C(=O)NO)ccc2c(=O)n1CCc1ccc(OC)cc1"
  growth: "16.5% (inactive)"
- compound: "CCN(CC)CCN1C(=O)c2cccc3c(-c4ccc5c(c4)ncn5C4CCCCC4)ccc(c23)C1=O"
  growth: "14.7% (inactive)"
- compound: "Cc1ccc(N=C2CSc3nnc(-c4csc5c4CCCC5)n3N2)cc1"
  growth: "23% (inactive)"
- compound: "C=C1C(=O)O[C@H]2[C@H]1CC/C(Cn1cc(-c3cc(C)c(C)cc3C)nn1)=C\\CC[C@@]1(C)O[C@@H]21"
  growth: "12.8% (inactive)"
- compound: "C[C@@H]1COCCN1c1cc(C2([S@](C)(=N)=O)CC2)nc(-c2ccnc3[nH]ccc23)n1"
  growth: "32.2% (inactive)"
- compound: "CNS(=O)(=O)Nc1nccc(Cc2c(C)c3ccc(Oc4ncccn4)cc3oc2=O)c1F"
  growth: "54.8% (inactive)"
- compound: "Nc1ncnc2c1ccn2-c1cccc(NC(=O)c2ccc(N3CCOCC3)c(C(F)(F)F)c2)c1"
  growth: "39.5% (inactive)"
- compound: "O=C(COc1ccc(/C=C2\\Cc3ccc(Cl)cc3C2=O)cc1)Nc1nccs1"
  growth: "108% (inactive)"
- compound: "CCN(CC)CCNC(=O)c1c(C)[nH]c(/C=C2\\C(=O)Nc3ccc(F)cc32)c1C"
  growth: "-79.3% (active)"
- compound: "C=CCCCOC1[C@H](OCc2ccccc2)C(OCc2ccccc2)C(OC)O[C@@H]1CNC(=O)c1cccc(I)c1 (stereo partly drawn)"
  growth: "25.4% (inactive)"
- compound: "CCCCCCCC(=O)SCC/C=C/[C@@H]1CC(=O)NCc2cccc(n2)C2=N[C@@](C)(CS2)C(=O)N[C@@H](C(C)C)C(=O)O1"
  growth: "-32.1% (active)"
- compound: "CC/C=C\\C[C@H]1C/C=C2/C(=O)C=C[C@@H]2C/C=C\\CCCC(=O)O1"
  growth: "-80.9% (active)"
- compound: "Nc1c(C(=O)c2ccccc2)sc2nc(-c3cccs3)cc(-c3cccs3)c12"
  growth: "25.6% (inactive)"
- compound: "Cc1ccc(NC(=O)NC(=O)CSc2nc3ccccc3nc2C)cc1"
  growth: "84.2% (inactive)"
- compound: "Cn1nccc1Nc1nccc(-c2ccn([C@H](CO)c3ccc(Cl)c(F)c3)c(=O)c2)n1"
  growth: "86.2% (inactive)"
- compound: "O=S1(=O)OC(c2cc(Cl)c(O)c(Br)c2)(c2cc(Cl)c(O)c(Br)c2)c2ccccc21"
  growth: "101% (inactive)"
- compound: "COc1cc2cc(NCc3ccc(F)cc3)nc(C)c2cc1OC"
  growth: "29.7% (inactive)"
- compound: "Nc1cc(C(F)(F)F)c(-c2cc(N3CCOCC3)nc(N3CCOCC3)n2)cn1"
  growth: "-2.08% (active)"
- compound: "Nc1c(Cl)cccc1[N+](=O)[O-]"
  growth: "103% (inactive)"
- compound: "CNc1ncc2cc(-c3cc(NC(=O)NCCC(C)(C)C)c(F)cc3C)c(C)nc2n1"
  growth: "16% (inactive)"
- compound: "COc1cc(CCc2cc(NC(=O)c3ccc(N4C[C@@H](C)N[C@@H](C)C4)cc3)n[nH]2)cc(OC)c1"
  growth: "45.2% (inactive)"
- compound: "Cc1c(CN2CCN(C(=O)[C@H](C)O)CC2)sc2c(N3CCOCC3)nc(-c3cnc(N)nc3)nc12"
  growth: "6.95% (active)"
- compound: "COc1c(C(NC(=O)c2ccccc2)c2sccc2C)cc(Cl)c2cccnc12 (stereo not drawn)"
  growth: "88.6% (inactive)"
- compound: "CCOc1cccc(/C=N/NC(=O)c2ccccc2Nc2ccnc(C(F)(F)F)c2)c1O"
  growth: "15.2% (inactive)"
- compound: "Cn1c(Nc2ccc(C(F)(F)F)cc2)nc2cc(Oc3ccnc(-c4ncc(C(F)(F)F)[nH]4)c3)ccc21"
  growth: "46.3% (inactive)"
- compound: "COc1ccc(C2CC(=O)c3c(O)c(OC)c(OC)c(OC)c3O2)cc1O (stereo not drawn)"
  growth: "25.7% (inactive)"
- compound: "Cc1cccc(C)c1N1C(c2ccccc2)=NNC12C=CC(=O)c1c(O)cccc12 (stereo not drawn)"
  growth: "40.9% (inactive)"
- compound: "COC(=O)CC[C@@H](C)[C@H]1CC[C@H]2C3CC[C@@H]4C[C@@H]5CC[C@]4(C)[C@@]3(O5)[C@H](Br)[C@@H](Br)[C@]12C (stereo partly drawn)"
  growth: "88.6% (inactive)"
- compound: "COC1CCC(N2C(=O)CNc3ncc(-c4ccc(C(C)(C)O)nc4)nc32)CC1 (stereo not drawn)"
  growth: "2.23% (active)"
- compound: "CCN1CCN(Cc2ccc(NC(=O)Nc3nc(-c4cc(OC)c(OC)c(OC)c4)cs3)cc2C(F)(F)F)CC1"
  growth: "15.3% (inactive)"
- compound: "CCN1CCN(Cc2ccc(-c3cc4c(N[C@H](C)c5ccccc5)ncnc4[nH]3)cc2)CC1"
  growth: "56.8% (inactive)"
- compound: "c1cc[n+](Cc2c3ccccc3cc3c2ccc2ccccc23)cc1"
  growth: "6.64% (active)"
- compound: "CCN(CCN(C)C)C(=O)CNCc1cc(C(N)=O)ccn1"
  growth: "87.5% (inactive)"
- compound: "COc1ccc(COc2cc3oc(=O)c4cc(C(C)O)ccc4c3cc2OC)cc1 (stereo not drawn)"
  growth: "46.5% (inactive)"
- compound: "Clc1ccc2c(NCCCNCc3ccc4c(c3)OCO4)ccnc2c1"
  growth: "10.6% (inactive)"
- compound: "O=C1OCC2=C1C(c1cccc(F)c1)c1cc3c(cc1N2CCO)OCCO3 (stereo not drawn)"
  growth: "17.8% (inactive)"
- compound: "O=C1CC(c2cccc(F)c2)c2c(n[nH]c2-c2ccc(Cl)cc2)N1 (stereo not drawn)"
  growth: "86.1% (inactive)"
- compound: "Cn1cnc2c(F)c(Nc3ccc(Br)cc3Cl)c(C(=O)NOCCO)cc21"
  growth: "46.2% (inactive)"
